Target: Drosophila OR13a (Drosophila melanogaster)
Construct: expressed in transfected cells
Sequence (Q9VXL0 whole entry, one chain of several): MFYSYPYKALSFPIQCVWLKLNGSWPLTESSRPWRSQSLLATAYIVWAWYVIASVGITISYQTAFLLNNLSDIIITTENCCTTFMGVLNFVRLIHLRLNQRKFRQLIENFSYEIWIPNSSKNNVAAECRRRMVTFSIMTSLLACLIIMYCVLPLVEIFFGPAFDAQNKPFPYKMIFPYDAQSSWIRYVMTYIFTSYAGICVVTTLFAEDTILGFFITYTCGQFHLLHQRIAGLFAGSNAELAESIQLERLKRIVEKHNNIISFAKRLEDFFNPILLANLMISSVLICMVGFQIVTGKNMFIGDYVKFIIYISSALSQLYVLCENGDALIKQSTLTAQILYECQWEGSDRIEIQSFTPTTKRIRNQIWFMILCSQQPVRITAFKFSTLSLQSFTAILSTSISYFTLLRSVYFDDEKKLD
Experiment: Calcium ion fluorescence (GCaMP6) assay, OR13a stable HEK293 cell line
Type: cell-based
Details: EC50, fitted average curve, the 12th table; fit to the average curve, n 0.854956
Procedure: These VUAA1 normalized ∆F values were used to compare the different receptors and ligands. The concentration-dependent effect of the reference ligands on their cognate cell lines was examined in more detail. Twelve different ligand concentrations were measured on each cell line in an overall 0.01 μM to 100 μM concentration range with 5 repetitions with three technical replicates each time. […]
Assay readout: EC50 (nM)
Numbers only, in nM.

Query block: Please look up its EC50: C=CC(O)CCCCC (stereo not shown)
Result block: 1410

====

Please provide measured activation at 10 µM for the entries that follow.
Target: Drosophila OR47a (Drosophila melanogaster)
Construct: expressed in transfected cells
Sequence (P81921 whole entry): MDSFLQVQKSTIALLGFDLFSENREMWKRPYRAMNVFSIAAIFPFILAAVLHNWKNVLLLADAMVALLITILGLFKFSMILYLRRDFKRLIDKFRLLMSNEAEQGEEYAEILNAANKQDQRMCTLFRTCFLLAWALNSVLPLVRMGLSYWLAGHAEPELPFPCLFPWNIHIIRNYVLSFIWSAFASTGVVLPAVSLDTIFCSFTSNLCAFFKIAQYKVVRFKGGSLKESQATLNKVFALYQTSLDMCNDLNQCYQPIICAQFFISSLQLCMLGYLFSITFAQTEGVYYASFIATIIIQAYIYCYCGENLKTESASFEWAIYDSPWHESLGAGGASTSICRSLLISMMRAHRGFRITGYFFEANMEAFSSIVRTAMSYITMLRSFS
Sequence (Q9VNB5 whole entry partner): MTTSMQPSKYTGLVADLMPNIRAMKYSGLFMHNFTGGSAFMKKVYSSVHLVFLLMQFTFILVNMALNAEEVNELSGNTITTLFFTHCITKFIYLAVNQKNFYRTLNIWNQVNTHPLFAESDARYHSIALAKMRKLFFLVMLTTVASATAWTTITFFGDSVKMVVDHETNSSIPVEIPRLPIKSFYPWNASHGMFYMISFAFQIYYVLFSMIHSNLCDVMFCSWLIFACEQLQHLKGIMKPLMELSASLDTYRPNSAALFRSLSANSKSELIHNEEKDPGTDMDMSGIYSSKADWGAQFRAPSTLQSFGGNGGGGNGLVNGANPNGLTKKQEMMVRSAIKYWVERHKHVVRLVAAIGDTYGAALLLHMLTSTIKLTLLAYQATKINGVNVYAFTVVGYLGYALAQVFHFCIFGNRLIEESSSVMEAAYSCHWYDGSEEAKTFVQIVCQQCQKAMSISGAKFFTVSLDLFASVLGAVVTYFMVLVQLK
Test: Calcium ion fluorescence (GCaMP6) assay, OR47a stable HEK293 cell line
Format: cell-based
Conditions: HEK293, read-out: OR47a Average response (VUAA1-normalized)
Answers are plain numbers, in %.

Check out these entries, answers already filled in.
C=CC(O)CCCCC (stereo not shown); 3
CCCCCOC(C)=O [pentyl acetate]; 85
CCCOC(C)=O [propyl acetate]; 9
CC/C=C\CCOC(C)=O [z3-hexenyl acetate]; 67

Please give activation at 10 µM for each item listed below.
1. CCCCC(C)=O
2. CCCCCC(C)=O
3. CCOC(=O)c1ccccc1 [ethyl benzoate]

Result block:
1. 0
2. 19
3. 0

====

Target: Drosophila OR98a (Drosophila melanogaster, UniProt Q9VAZ3)
Construct: expressed in transfected cells
Sequence (Q9VAZ3 whole entry, one chain of several): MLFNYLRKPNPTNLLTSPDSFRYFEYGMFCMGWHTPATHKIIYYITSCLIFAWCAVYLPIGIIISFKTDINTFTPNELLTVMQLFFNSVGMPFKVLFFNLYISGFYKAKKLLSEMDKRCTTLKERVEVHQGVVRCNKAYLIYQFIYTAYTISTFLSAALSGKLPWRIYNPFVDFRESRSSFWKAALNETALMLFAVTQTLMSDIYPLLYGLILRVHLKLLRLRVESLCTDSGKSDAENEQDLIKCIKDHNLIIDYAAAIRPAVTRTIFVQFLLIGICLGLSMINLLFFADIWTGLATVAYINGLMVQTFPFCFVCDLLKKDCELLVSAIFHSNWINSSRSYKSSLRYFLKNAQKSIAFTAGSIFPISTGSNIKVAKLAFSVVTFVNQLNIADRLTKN
Assay: Calcium ion fluorescence (GCaMP6) assay, OR98a stable HEK293 cell line
Format: cell-based
Conditions: concentration 1; normalized fluorescence change, values below 0.05 threshold given as 0
Description: These VUAA1 normalized ∆F values were used to compare the different receptors and ligands. The concentration-dependent effect of the reference ligands on their cognate cell lines was examined in more detail. Twelve different ligand concentrations were measured on each cell line in an overall 0.01 μM to 100 μM concentration range with 5 repetitions with three technical replicates each time. […]
Assay readout: DF norm AVERAGE OR98a
Answers are plain numbers.

C=CC(O)CCCCC (stereo not drawn) [1-octen-3-ol]; 0
C=C1[C@H]2CC[C@@H]3[C@H]2C(C)(C)CCC[C@]13C [(+)-longifolene]; 0
CCCCCC(C)=O [2-heptanone]; 0.06738
CCCCC(C)=O [2-hexanone]; 0
CCCCCCCO [1-heptanol]; 0
COc1cccc(OC)c1 [1,3-dimethoxy benzene]; 0
CCCCCO [1-pentanol]; 0
CCCC(O)CC (stereo not drawn) [3-hexanol]; 0
C=CC(O)C/C=C\CC (stereo not drawn) [(5Z)-octa-1,5-dien-3-ol]; 0
C=C1CC[C@H]2O[C@]2(C)CC[C@@H]2[C@@H]1CC2(C)C [(-)-caryophyllene oxide]; 0

Please give DF norm AVERAGE OR98a for each item listed below.
1. C=C(C)[C@H]1CC=C(C)CC1 [(R)-(+)-limonene]
2. C=C1CC/C=C(\C)CC[C@@H]2[C@@H]1CC2(C)C [(-)-trans-caryophyllene]

Result block:
0
0.06975

====

Target: Drosophila OR98a (Drosophila melanogaster, UniProt Q9VAZ3)
Construct: expressed in transfected cells
Test: Calcium ion fluorescence (GCaMP6) assay, OR98a stable HEK293 cell line
Type: cell-based
Details: concentration 10; normalized fluorescence change, values below 0.05 threshold given as 0
Assay readout: DF norm AVERAGE OR98a
Give bare numbers.

Check out these entries, answers already filled in.
Cc1cccc(O)c1 [3-methylphenol]; 0
CCCCC(C)=O [2-hexanone]; 0
CCCCCCCCC(CO)CCCCCC (centres unmarked) [2-hexyl-1-decanol]; 0.1367

Please give DF norm AVERAGE OR98a for each item listed below.
1. CCCCCC(C)=O [2-heptanone]
2. CCCCC(C)O (centres unmarked) [2-hexanol]
3. C=C(C)C1CCC2(C)OC2C1 (single isomer, unassigned; (+)) [(+)-limonene oxide]
4. C=C1CC/C=C(\C)CC[C@@H]2[C@@H]1CC2(C)C [(-)-trans-caryophyllene]
5. CC1=CCC2C(C1)C2(C)C (centres unmarked) [3-carene]
6. CCCCCO [1-pentanol]
7. CCCC(O)CC (centres unmarked) [3-hexanol]

Result block:
1: 0; 2: 0; 3: 0; 4: 0.06201; 5: 0; 6: 0; 7: 0.194

Please give DF norm AVERAGE OR98a for each item listed below.
1. C=CC(O)CCCCC (centres unmarked) [1-octen-3-ol]
2. COc1cccc(OC)c1 [1,3-dimethoxy benzene]
3. CCCCCC(O)CC (centres unmarked) [3-octanol]
4. CCCCCC(=O)CC [3-octanone]
5. CCCCCCCO [1-heptanol]
6. Cc1ccc(O)cc1 [4-methylphenol]
7. Cc1ccc(C)c(C)c1 [1,2,4-trimethylbenzene]

Result block:
0
0
0
0
0.05219
0
0.1254

Please give DF norm AVERAGE OR98a for each item listed below.
1. C=C1[C@H]2CC[C@@H]3[C@H]2C(C)(C)CCC[C@]13C [(+)-longifolene]
2. CCCCCC(C)O (centres unmarked) [2-heptanol]
3. CC1=CCC[C@@]2(C)[C@@H]3CC[C@]12CC3(C)C [(−)-α-neoclovene]
4. C=C(C)[C@H]1CC=C(C)CC1 [(R)-(+)-limonene]

Result block:
1: 0.1258; 2: 0; 3: 0; 4: 0

Please give DF norm AVERAGE OR98a for each item listed below.
1. C=CC(O)C/C=C\CC (centres unmarked) [(5Z)-octa-1,5-dien-3-ol]
2. C=C1CC[C@H]2O[C@]2(C)CC[C@@H]2[C@@H]1CC2(C)C [(-)-caryophyllene oxide]

Result block:
1. 0.08127
2. 0
